target: Bcl-2-like protein 10 (Homo sapiens) (UniProt Q9HD36); experiment: TR3 peptide-Bcl-B binding displacers, biochemical primary FP assay, phenotype converters (AID 1240); details: GST-Bcl-B / FITC-TR3 peptide fluorescence polarization; stronger effect = higher value; compound at 3.75 mg/L;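 note: 0% = Bcl-B with tracer peptide and DMSO and 100% = tracer peptide lacking Bcl-B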
Sequence (Q9HD36 whole entry, looked up): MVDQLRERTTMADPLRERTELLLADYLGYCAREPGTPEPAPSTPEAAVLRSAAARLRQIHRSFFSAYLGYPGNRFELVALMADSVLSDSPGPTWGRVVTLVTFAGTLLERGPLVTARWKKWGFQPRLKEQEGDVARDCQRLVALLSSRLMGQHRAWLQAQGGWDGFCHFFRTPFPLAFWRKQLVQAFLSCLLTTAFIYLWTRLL
The campaign covered roughly 50,000 compounds. About 800 (1.6%) showed an effect of 50% or more. The list comes from a sample in which strong results are over-represented; it also holds close analogues and randomly drawn compounds.

# Compound, displacement (%)
data = [
    ("C=CCSc1nc(C)c2cc(OCC)ccc2n1", 7.4),
    ("Cc1cccc(N/C=C/C(=O)c2ccc(Cl)cc2)c1", -2.2),
    ("Cc1ccc(C2OC3(C(=O)c4ccccc4C3=O)C(c3cccc(Cl)c3)C23C(=O)c2ccccc2C3=O)cc1 (stereo unspecified)", 2),
    ("CCOc1ccc2nc(SC)nc(C)c2c1", -3.6),
    ("O=C(c1ccc(N2CCN(C(=O)c3ccc(F)cc3F)CC2)cc1)c1cccc(F)c1", 72.1),
    ("O=C1CC(N(Cc2ccc3c(c2)OCO3)C(=O)c2ccc(Cl)cc2)C(=O)N1c1ccc(F)cc1 (stereo unspecified)", -2.2),
    ("CC1(O)c2ccccc2C(=O)N1Cc1ccccc1 (stereo unspecified)", 12.6),
    ("CCOC(=O)c1ccc(N/C=C/C(=O)c2ccc(Cl)cc2)cc1", 59.8),
    ("COCC(=O)Nc1ccc2ccccc2c1", -2.7),
    ("O=C(NC(=S)NC1CCSC1=O)c1ccco1 (stereo unspecified)", 1),
    ("O=C(c1ccc(N2CCN(C(=O)c3ccccc3F)CC2)cc1)c1cccc(F)c1", -53.4),
]

====

# maps each entry to its displacement
target: Bcl-2-like protein 10 (Homo sapiens) (UniProt Q9HD36); test: TR3 peptide-Bcl-B binding displacers, biochemical primary FP assay, phenotype converters (AID 1240); conditions: GST-Bcl-B / FITC-TR3 peptide fluorescence polarization; stronger effect = higher value; compound at 3.75 mg/L;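 note: 0% = Bcl-B with tracer peptide and DMSO and 100% = tracer peptide lacking Bcl-B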
The campaign covered roughly 50,000 compounds. About 800 (1.6%) showed an effect of 50% or more. Many of the other results were omitted from the sample, so strong results are more common in it than they were.

# Compound, Unit, displacement
data = [
    ("O=S(=O)(O)c1nc2ccccc2n1-c1ccccc1", "%", -9.1),
    ("CC(C)c1ccc(/C=C2\\SC(=S)N(Cc3ccccc3)C2=O)cc1", "%", 2.6),
    ("C#CCn1cc(/C=C2\\C(=O)NC(=O)N(c3ccc(C)cc3)C2=O)c2ccccc21", "%", 66.4),
    ("Cc1ccc(-c2nc3ccccc3o2)cc1NC(=O)c1ccco1", "%", 3.1),
    ("Cc1ccc(S(=O)(=O)N2CCN(C(=O)COc3ccc(Cl)cc3)CC2)cc1", "%", -15.1),
    ("CCn1cc(/C=C2\\C(=O)NC(=O)N(c3ccccc3)C2=O)c2ccccc21", "%", 25.2),
    ("O=C(N/N=C/c1cccnc1)c1ccco1", "%", 18.4),
    ("CCOc1ccc(C(=O)Nc2cc(OC)ccc2OC)cc1Br", "%", -9),
    ("COC(=O)c1cccc(N2C(=O)C=CC2=O)c1", "%", 1),
    ("Cc1ccccc1/[N+]([O-])=C/c1cccs1", "%", 0.1),
    ("C#CCn1cc(/C=C2\\C(=O)NC(=O)N(c3ccc(Cl)cc3)C2=O)c2ccccc21", "%", 37.5),
    ("COc1cc(-c2csc(N)n2)ccc1O", "%", 15.6),
    ("COc1cc(CN2CCN(Cc3ccccn3)CC2)cc(OC)c1OC", "%", -5.1),
    ("CC1CCCCN1C(=O)c1cc2nc(-c3cccs3)cc(C(F)(F)F)n2n1 (stereo not drawn)", "%", 18.3),
    ("Cc1cc(C)cc(N2C(=O)NC(=O)/C(=C\\c3ccc(N(C)C)cc3)C2=O)c1", "%", 127),
    ("O=c1[nH]cc(N=Cc2ccccc2)c(=O)[nH]1", "%", -2.8),
    ("CCN1C(=O)/C(=C\\c2cn(CCOc3ccccc3C)c3ccccc23)SC1=S", "%", 127),
    ("O=C(c1ccccc1)N1CCCC2CCCCC21 (stereo not drawn)", "%", 1.6),
    ("COc1cccc(/C=C2\\SC(=S)N(Cc3ccccc3)C2=O)c1OC", "%", 8.6),
    ("CCOc1cc(C2C(C(=O)OC)=C(C)NC(C)=C2C(=O)OC)ccc1O", "%", 0.1),
    ("C=CCc1ccccc1OCCn1cc(/C=C2/SC(=S)N(CC)C2=O)c2ccccc21", "%", 11.6),
    ("Cc1ccccc1NC(=O)c1c(N)sc2c1CCCC2", "%", 12.7),
    ("Cc1ccc(S(=O)(=O)Nc2ccc(S(=O)(=O)N3CCCCC3)cc2)cc1[N+](=O)[O-]", "%", -4),
]

====

target: Bcl-2-like protein 10 (Homo sapiens) (UniProt Q9HD36); experiment: TR3 peptide-Bcl-B binding displacers, biochemical primary FP assay, phenotype converters (AID 1240); conditions: GST-Bcl-B / FITC-TR3 peptide fluorescence polarization; stronger effect = higher value; compound at 3.75 mg/L;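 note: 0% = Bcl-B with tracer peptide and DMSO and 100% = tracer peptide lacking Bcl-B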
Out of some 50,000 compounds screened, about 800 (1.6%) showed an effect of 50% or more. The full list was thinned out, with strong results kept by preference.

# Compound, displacement
data = [
    ("O=C(CSc1nc2ccccc2s1)Nc1nc2ccccc2s1", "7.4%"),
    ("Cc1ccc2oc(-c3cc(N)ccc3O)nc2c1", "5.4%"),
    ("CN1CCN(CCOCCOc2ccccc2)CC1", "-7.9%"),
    ("O=C(c1sc2ccccc2c1Cl)N1CCN(Cc2ccc3c(c2)OCO3)CC1", "0.4%"),
    ("COc1cc(/C=C/c2[nH]c(=O)[nH]c(=O)c2[N+](=O)[O-])cc(Br)c1OCc1ccccc1", "15.6%"),
    ("Cc1ccc(S(=O)(=O)Oc2ccc(/C=C3/SC(=S)N(C)C3=O)cc2)cc1", "-3.3%"),
    ("Cc1ccc(C2=NC(=O)/C(=C/c3ccc4c(c3)OCO4)S2)cc1", "0.5%"),
    ("CCCCOC(=O)c1cccc(NC(=O)c2cc3ccccc3oc2=O)c1", "1.7%"),
    ("O=C(NC(=S)Nc1ccc2oc(-c3ccccc3)nc2c1)c1ccccc1", "-10.6%"),
    ("O=C(Nc1ccc2c(c1)OCCO2)c1cc2ccccc2o1", "-6.3%"),
    ("CC(=O)NC1=NC(=O)/C(=C\\c2ccc(-c3ccc(C(=O)O)cc3)o2)S1", "-27%"),
    ("COc1ccc(Br)cc1/C=C/C(=O)Nc1nc2ccc(C)cc2s1", "-22.6%"),
    ("O=C1/C(=C\\c2cccc(Br)c2)SC(=S)N1c1cccc(C(F)(F)F)c1", "18.2%"),
    ("COc1ccc(C(=O)NNC(=O)c2cccc(C)c2)c(OC)c1", "3.3%"),
    ("O=C(N/N=C/c1cc(Cl)ccc1OCc1c(F)cccc1Cl)c1cccnc1", "-2%"),
    ("Cc1nc2ccccc2n1C(=O)c1ccco1", "-3.1%"),
    ("O=C(CSc1nc2ccccc2s1)Nc1ccccc1", "7.4%"),
    ("CC(=O)c1ccc(NC(=O)c2ccoc2C)cc1", "94%"),
    ("O=C(Cc1ccccc1)Nc1ccc(Cl)c(-c2nc3ncccc3o2)c1", "7.3%"),
    ("CC(C)C(=O)NC(c1ccc(N(C)C)cc1)c1c(O)ccc2ccccc12 (configuration not stated)", "6.4%"),
    ("O=C1NC(=O)N(c2ccc(Cl)cc2)C(=O)/C1=C/c1ccc(-c2ccc(Cl)c(C(=O)O)c2)o1", "72.5%"),
    ("O=C(Nc1ccc(Cl)cc1)Nc1ccc([N+](=O)[O-])cc1Br", "3.9%"),
    ("O=C(Nc1ccc(Cl)c(-c2nc3ccccc3o2)c1)c1cccc(F)c1", "-5.1%"),
    ("O=C(NC(=S)Nc1ccc2oc3ccccc3c2c1)c1ccccc1", "91.8%"),
    ("Cc1ccc(OCCOc2ccc(Br)cc2C=C2C(=O)NC(=S)NC2=O)cc1", "-23.5%"),
    ("CCOc1cc(/C=C2\\SC(=S)N(Cc3ccco3)C2=O)ccc1O", "-18.8%"),
    ("CC(=O)NC1=NC(=O)/C(=C\\c2ccc(Cl)cc2)S1", "133%"),
    ("Cc1cc(C)nc(NS(=O)(=O)c2ccc(NC(=O)CSc3ncn[nH]3)cc2)n1", "5.3%"),
    ("O=C(CSc1nc2ccccc2s1)Nc1ncccn1", "57.1%"),
    ("COc1ccc(C(=O)/C=C\\Nc2ccc(Cl)cn2)cc1", "-23.9%"),
    ("O=c1[nH]c(/C=C/c2ccccc2)c([N+](=O)[O-])c(=O)[nH]1", "18.1%"),
    ("O=C(Nc1ccc(Cl)c(Cl)c1)c1cc2ccccc2o1", "2.9%"),
    ("Cc1occc1C(=O)Nc1ccc(C(=O)O)cc1", "-1.9%"),
    ("Cc1cc(/C=N/NC(=O)c2ccccn2)c(C)n1-c1cccc(Cl)c1", "-15.5%"),
    ("O=C(/C=C/c1ccccc1)Nc1nc2ccc(Br)cc2s1", "15%"),
    ("CCO/C=N/C1=C(C#N)C(c2ccccc2)C2=C(CC(C)(C)CC2=O)O1 (configuration not stated)", "4.5%"),
    ("COc1ccc(C(=O)Nc2ccc(S(=O)(=O)NC(C)=O)cc2)cc1", "13.1%"),
    ("O=C(NC(=S)Nc1ccccc1)c1ccccc1", "4.7%"),
    ("CCc1c(C)sc(NC(=O)c2cccs2)c1C(=O)OC", "3.3%"),
    ("O=C(O)CN(c1ccccc1)S(=O)(=O)c1ccccc1[N+](=O)[O-]", "4.7%"),
    ("O=C(Nc1ccc2c(c1)Cc1ccccc1-2)c1ccncc1", "-3.2%"),
    ("Cc1nn(-c2ccccc2)c(C)c1/C=N/O", "3.2%"),
    ("O=C1N/C(=N\\N=C\\c2ccccc2F)SC1Cc1ccccc1[N+](=O)[O-] (configuration not stated)", "7.3%"),
    ("O=Cc1cc(Br)ccc1OCc1c(F)cccc1Cl", "0.3%"),
    ("O=C(Nc1ccccc1)Nc1nnc(SCc2ccc(F)cc2)s1", "13.5%"),
    ("CC(=O)NC1=NC(=O)/C(=C\\c2ccc3c(c2)OCO3)S1", "130%"),
    ("COc1ccccc1OCCCN1CCOCC1", "-1.3%"),
]

meta.source: PubChem BioAssay AID1240
